B1: library; a variant is named by its letters at N, in order (parent)
chain: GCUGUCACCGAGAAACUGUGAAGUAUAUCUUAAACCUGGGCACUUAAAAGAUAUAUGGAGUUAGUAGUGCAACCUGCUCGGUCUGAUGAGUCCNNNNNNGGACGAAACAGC

variants of: B1; assay: normalized RNA/DNA level without ligand (relative to sTRSVctl = 100) (log10 (% of sTRSVctl)); HEK293T; ligand: cyclic di-GMP (c-di-GMP-II aptamer); higher = less ribozyme self-cleavage, higher mRNA level; details: reporter: mCherry (pCS4076), ligand present: no
variants and their reported normalized RNA/DNA level without ligand (log10)
API doc: respond with a numeric literal and nothing else, no unit.

Worked examples follow.
Change	Measured value
CUGGUA	1.38
UUUCGC	1.79
CGUAAG	1.77
ACACGC	1.55
CUUACC	1.77
UGGAUG	1.62

Request: Which normalized RNA/DNA level without ligand (log10) value belongs to UCCUGG ?
Response: 1.82

Request: Which normalized RNA/DNA level without ligand (log10) value belongs to CCUAGC ?
Response: 1.65

Request: Which normalized RNA/DNA level without ligand (log10) value belongs to ACUGAC ?
Response: 1.61

Recorded values, source the supplement of paper PMC6757056.
